# credit: patent US20260159536A1

target: P-gp (Homo sapiens, UniProt P08183); construct: expressed in transfected cells; host or cells: MDCKII-MDR1 cells; assay: P-gp substrate evaluation, MDCKII-MDR1 penetration test with or without Verapamil; assay type: in vitro ADME; conditions: dog, MDCK-MDR1
Sequence (P08183 whole entry): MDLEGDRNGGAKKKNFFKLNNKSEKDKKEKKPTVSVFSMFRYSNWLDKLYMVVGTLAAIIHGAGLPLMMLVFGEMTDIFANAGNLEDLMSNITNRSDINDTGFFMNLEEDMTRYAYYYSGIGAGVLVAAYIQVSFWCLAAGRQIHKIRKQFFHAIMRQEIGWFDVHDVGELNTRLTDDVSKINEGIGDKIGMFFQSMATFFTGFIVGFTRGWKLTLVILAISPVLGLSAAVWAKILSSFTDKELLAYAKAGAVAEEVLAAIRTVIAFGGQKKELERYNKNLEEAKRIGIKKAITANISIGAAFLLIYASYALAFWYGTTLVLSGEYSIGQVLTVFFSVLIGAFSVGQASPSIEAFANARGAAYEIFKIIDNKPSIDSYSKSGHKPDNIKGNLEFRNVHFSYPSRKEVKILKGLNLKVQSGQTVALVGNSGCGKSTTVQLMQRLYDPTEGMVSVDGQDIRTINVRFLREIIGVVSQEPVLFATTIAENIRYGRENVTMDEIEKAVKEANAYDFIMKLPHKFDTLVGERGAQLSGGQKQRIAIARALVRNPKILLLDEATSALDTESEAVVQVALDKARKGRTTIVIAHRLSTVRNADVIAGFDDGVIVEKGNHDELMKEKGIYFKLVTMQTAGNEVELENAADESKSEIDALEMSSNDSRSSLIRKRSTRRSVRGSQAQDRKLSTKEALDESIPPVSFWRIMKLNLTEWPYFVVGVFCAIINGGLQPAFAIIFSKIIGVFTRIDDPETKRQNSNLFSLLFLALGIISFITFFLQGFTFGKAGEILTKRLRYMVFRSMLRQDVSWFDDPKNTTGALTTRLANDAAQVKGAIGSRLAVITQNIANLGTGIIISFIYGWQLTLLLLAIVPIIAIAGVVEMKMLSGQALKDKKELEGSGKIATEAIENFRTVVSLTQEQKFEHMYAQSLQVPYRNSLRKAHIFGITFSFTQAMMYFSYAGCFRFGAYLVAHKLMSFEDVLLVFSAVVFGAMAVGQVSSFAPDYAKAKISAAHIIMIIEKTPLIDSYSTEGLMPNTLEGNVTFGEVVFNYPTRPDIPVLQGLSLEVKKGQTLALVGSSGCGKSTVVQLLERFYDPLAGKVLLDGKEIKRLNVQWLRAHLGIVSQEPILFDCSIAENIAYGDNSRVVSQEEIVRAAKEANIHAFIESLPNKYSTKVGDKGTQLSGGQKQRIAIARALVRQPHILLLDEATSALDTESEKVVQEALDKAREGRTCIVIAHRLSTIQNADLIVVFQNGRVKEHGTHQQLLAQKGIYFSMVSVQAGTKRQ
Please provide measured Papp B→A at 2 h for the entries that follow.
Units required after the number.

Go through the list and state Papp B→A at 2 h for each entry.
1. C[C@@H](OP(=O)(N1CC1)N1CC1)c1ccc([N+](=O)[O-])c(Oc2cccc(C(=O)N(C)C)c2)c1 [AST-3424]
2. O=[N+]([O-])c1ccc(C(OP(=O)(N2CC2)N2CC2)C(F)(F)F)cc1Oc1ccc(-c2ccc(F)cc2)c(F)c1 (racemic) [Compound A]

Result string:
345 nm/s
2.4 nm/s
